# measurement description: logP determination
# Type: physicochemical
# experimental context: Table 1 logP
measured quantity: logP

C=C(Br)CN(CCCF)c1c(-c2ccc(C(F)(F)F)c(F)c2F)c(Cl)nc2ncnn12 : 3.94
C=C(Cl)CN(CCCF)c1c(-c2cc(C(F)(F)F)ccc2C(F)(F)F)c(F)nc2ncnn12 : 3.77
CC(=O)CN(CCCF)c1c(-c2cc(C(F)(F)F)ccc2Cl)c(Cl)nc2ncnn12 : 3.07
C=C(Br)CN(CCCF)c1c(-c2cc(C(F)(F)F)ccc2Cl)c(Cl)nc2ncnn12 : 3.92
CN(C)C(=O)CN(CCCF)c1c(-c2cccc3c2OC(F)(F)O3)c(Cl)nc2ncnn12 : 2.52

[A] C=C(Cl)CN(CCCF)c1c(-c2cc(SC(F)(F)F)ccc2Cl)c(Cl)nc2ncnn12
[B] CC(=O)CN(CCCF)c1c(-c2cccc3c2OC(F)(F)O3)c(Cl)nc2ncnn12
Could you kindly indicate whether A or B has the higher logP value? Indicate which entry you chose by stating its label.
A

* * *

# measurement description: logP determination
# Type: physicochemical
# experimental context: Table 1 logP
measured quantity: logP

CN(C)C(=O)CN(CCCF)c1c(-c2c(Cl)c(F)cc(C(F)(F)F)c2Cl)c(Cl)nc2ncnn12 : 3.01
CCOC(CN(CCCF)c1c(-c2ccc(C(F)(F)F)c(F)c2F)c(Cl)nc2ncnn12)OCC : 4.16
COC(=O)CN(CCCF)c1c(-c2cccc(C(F)(F)F)c2Cl)c(Cl)nc2ncnn12 : 3.17
CN(C)C(=O)CN(CCCF)c1c(-c2cccc(C(F)(F)F)c2Cl)c(Cl)nc2ncnn12 : 2.71
COC(CN(CCCF)c1c(-c2cc(C(F)(F)F)ccc2Cl)c(Cl)nc2ncnn12)OC : 3.54
C=C(Br)CN(CCCF)c1c(-c2cccc3c2OC(F)(F)O3)c(Cl)nc2ncnn12 : 3.69
CCOC(CN(CCCF)c1c(-c2cccc3c2OC(F)(F)O3)c(Cl)nc2ncnn12)OCC : 3.81
CN(C)C(=O)CN(CCCF)c1c(-c2cc(C(F)(F)F)ccc2Cl)c(Cl)nc2ncnn12 : 2.77
CCOC(CN(CCCF)c1c(-c2cccc(C(F)(F)F)c2Cl)c(Cl)nc2ncnn12)OCC : 4.00
C=C(Cl)CN(CCCF)c1c(-c2cccc3c2OC(F)(F)O3)c(Cl)nc2ncnn12 : 3.61
C=C(Cl)CN(CCCF)c1c(-c2cccc(C(F)(F)F)c2Cl)c(F)nc2ncnn12 : 3.66
C=C(Br)CN(CCCF)c1c(-c2cccc(C(F)(F)F)c2Cl)c(F)nc2ncnn12 : 3.73
CN(C)C(=O)CN(CCCF)c1c(-c2ccc(C(F)(F)F)c(F)c2F)c(Cl)nc2ncnn12 : 2.86
CCOC(CN(CCCF)c1c(-c2cc(SC(F)(F)F)ccc2Cl)c(Cl)nc2ncnn12)OCC : 4.47
C=C(Cl)CN(CCCF)c1c(-c2c(Cl)c(F)cc(C(F)(F)F)c2Cl)c(Cl)nc2ncnn12 : 4.19
COC(=O)CN(CCCF)c1c(-c2c(Cl)c(F)cc(C(F)(F)F)c2Cl)c(Cl)nc2ncnn12 : 3.58

* * *

# measurement description: logP determination
# Type: physicochemical
# experimental context: Table 1 logP
measured quantity: logP

CN(C)C(=O)CN(CCCF)c1c(-c2ccc(C(F)(F)F)cc2F)c(Cl)nc2ncnn12 : 2.71
CC(=O)CN(CCCF)c1c(-c2ccc(C(F)(F)F)c(F)c2F)c(Cl)nc2ncnn12 : 3.14
COC(CN(CCCF)c1c(-c2c(Cl)c(F)cc(C(F)(F)F)c2Cl)c(Cl)nc2ncnn12)OC : 3.82
CC(=O)CN(CCCF)c1c(-c2cccc(C(F)(F)F)c2Cl)c(Cl)nc2ncnn12 : 3.01
C=C(Br)CN(CCCF)c1c(-c2c(Cl)c(F)cc(C(F)(F)F)c2Cl)c(Cl)nc2ncnn12 : 4.27
CCOC(CN(CCCF)c1c(-c2ccc(C(F)(F)F)cc2F)c(Cl)nc2ncnn12)OCC : 4.04
COC(CN(CCCF)c1c(-c2c(F)cc(F)cc2C(F)(F)F)c(Cl)nc2ncnn12)OC : 3.22
COC(CN(CCCF)c1c(-c2ccc(C(F)(F)F)cc2F)c(Cl)nc2ncnn12)OC : 3.41
COC(=O)CN(CCCF)c1c(-c2cc(SC(F)(F)F)ccc2Cl)c(Cl)nc2ncnn12 : 3.57
COC(=O)CN(CCCF)c1c(-c2ccc(C(F)(F)F)c(F)c2F)c(Cl)nc2ncnn12 : 3.29
COC(=O)CN(CCCF)c1c(-c2c(F)cc(F)cc2C(F)(F)F)c(Cl)nc2ncnn12 : 2.92
COC(CN(CCCF)c1c(-c2ccc(C(F)(F)F)c(F)c2F)c(Cl)nc2ncnn12)OC : 3.55
CN(C)C(=O)CN(CCCF)c1c(-c2cc(C(F)(F)F)ccc2C(F)(F)F)c(Cl)nc2ncnn12 : 2.89
C=C(Br)CN(CCCF)c1c(-c2cc(C(F)(F)F)ccc2C(F)(F)F)c(F)nc2ncnn12 : 3.84
C=C(Br)CN(CCCF)c1c(-c2ccc(C(F)(F)F)cc2F)c(Cl)nc2ncnn12 : 3.85
CC(=O)CN(CCCF)c1c(-c2cc(SC(F)(F)F)ccc2Cl)c(Cl)nc2ncnn12 : 3.42

* * *

# measurement description: logP determination
# Type: physicochemical
# experimental context: Table 1 logP
measured quantity: logP

CN(C)C(=O)CN(CCCF)c1c(-c2cc(SC(F)(F)F)ccc2Cl)c(Cl)nc2ncnn12 : 3.14
CCOC(CN(CCCF)c1c(-c2c(Cl)c(F)cc(C(F)(F)F)c2Cl)c(Cl)nc2ncnn12)OCC : 4.45
C=C(Br)CN(CCCF)c1c(-c2cc(SC(F)(F)F)ccc2Cl)c(Cl)nc2ncnn12 : 4.36
COC(=O)CN(CCCF)c1c(-c2cc(C(F)(F)F)ccc2Cl)c(Cl)nc2ncnn12 : 3.23
C=C(Cl)CN(CCCF)c1c(-c2cc(C(F)(F)F)ccc2Cl)c(Cl)nc2ncnn12 : 3.84
CC(=O)CN(CCCF)c1c(-c2ccc(C(F)(F)F)cc2F)c(Cl)nc2ncnn12 : 3.01
CCOC(CN(CCCF)c1c(-c2cc(C(F)(F)F)ccc2Cl)c(Cl)nc2ncnn12)OCC : 4.10
C=C(Cl)CN(CCCF)c1c(-c2ccc(C(F)(F)F)cc2F)c(Cl)nc2ncnn12 : 3.77
COC(CN(CCCF)c1c(-c2cccc3c2OC(F)(F)O3)c(Cl)nc2ncnn12)OC : 3.24
COC(=O)CN(CCCF)c1c(-c2ccc(C(F)(F)F)cc2F)c(Cl)nc2ncnn12 : 3.17
COC(CN(CCCF)c1c(-c2cccc(C(F)(F)F)c2Cl)c(Cl)nc2ncnn12)OC : 3.42
C=C(Cl)CN(CCCF)c1c(-c2ccc(C(F)(F)F)c(F)c2F)c(Cl)nc2ncnn12 : 3.86
